- Test system: HIF-1
- test_protocol: Dual luciferase-reporter assay
- Type: cell-based, human
- condition_set: Homo sapiens, HEK-293T, 24 h
pIC50: −log10 of the molar value.

molecule: COc1ccc(C(=O)COc2cc(C(=O)[C@@H](C)Oc3ccc([C@H]4O[C@H](c5ccc(O[C@H](C)C(=O)c6ccc(OC)c(OCC(=O)c7ccc(OC)c(OC)c7)c6)c(OC)c5)[C@H](C)[C@H]4C)cc3OC)ccc2OC)cc1OC
qualifier_operator: <
pIC50: 2.00
//
molecule: COc1ccc(C(=O)[C@@H](C)Oc2ccc([C@H]3O[C@H](c4ccc(O[C@H](C)C(=O)c5ccc(C6(C(F)(F)F)N=N6)cc5)c(OC)c4)[C@H](C)[C@H]3C)cc2OC)cc1OCCOCCOCCNC(=O)CCCC[C@@H]1SC[C@@H]2NC(=O)N[C@@H]21
qualifier_operator: =
pIC50: 5.63
//
molecule: COc1ccc([C@@H](O)[C@@H](C)Oc2ccc([C@H]3O[C@H](c4ccc(O[C@H](C)[C@H](O)c5ccc(OC)c(OC)c5)c(OC)c4)[C@H](C)[C@H]3C)cc2OC)cc1OC [compound 1, manassantin A, reference compound]
qualifier_operator: =
pIC50: 7.96
//
molecule: C#CCOc1cc(C(=O)[C@@H](C)Oc2ccc([C@H]3O[C@H](c4ccc(O[C@H](C)C(=O)c5ccc(C6(C(F)(F)F)N=N6)cc5)c(OC)c4)[C@H](C)[C@H]3C)cc2OC)ccc1OC
qualifier_operator: =
pIC50: 6.14

Sourced from paper PMC4765894
